Data provenance: BigSolDB 2.1

Settings: in methyl acetate, 258.15 K
experimental.readout: solubility (mole fraction)

Give reported solubility (mole fraction) value for "OC/C=C/c1ccccc1"
0.225

====

Conditions: in isobutanol, 283.15 K
experimental.readout: solubility (mole fraction)
The reply should be a number, written without any unit.

Quote solubility (mole fraction) reported for "OC/C=C/c1ccccc1" please.
0.431

====

Details: in isopropanol, 288.15 K
experimental.readout: solubility (mole fraction)
In your answer, state the number alone without any accompanying words.

Look up and state reported solubility (mole fraction) for "OC/C=C/c1ccccc1"
0.582

====

Details: in acetone, 293.15 K
experimental.readout: solubility (mole fraction)
When you answer, write just the number.

Tell me solubility (mole fraction) reported for "OC/C=C/c1ccccc1"
0.674

====

Details: in sec-butanol, 268.15 K
experimental.readout: solubility (mole fraction)
Number only, no unit.

Name the recorded solubility (mole fraction) of the compound listed here: "OC/C=C/c1ccccc1"
0.255

====

Conditions: in n-propanol, 258.15 K
experimental.readout: solubility (mole fraction)

Indicate the recorded solubility (mole fraction) value for this compound: "OC/C=C/c1ccccc1"
0.213

====

Conditions: in ethyl acetate, 313.15 K
experimental.readout: solubility (mole fraction)
Give the figure only, with no unit attached.

Consider the compound "O=C(O)c1ccccc1O" and give its recorded solubility (mole fraction).
0.165

====

Conditions: in methanol, 293.15 K
experimental.readout: solubility (mole fraction)
Please give only the number in your answer, with no unit.

Note solubility (mole fraction) for the molecule shown: "OC/C=C/c1ccccc1"
0.61

====

Conditions: in n-butanol, 283.15 K
experimental.readout: solubility (mole fraction)

Report solubility (mole fraction), nothing else, for this molecule: "OC/C=C/c1ccccc1"
0.479

====

Settings: in methyl acetate, 268.15 K
experimental.readout: solubility (mole fraction)
Give the figure only, with no unit attached.

Please list solubility (mole fraction) recorded for the molecule "OC/C=C/c1ccccc1"
0.326

====

Conditions: in methanol, 288.15 K
experimental.readout: solubility (mole fraction)
// no unit string in output, number only

Let me know recorded solubility (mole fraction) for "OC/C=C/c1ccccc1" , thanks.
0.536

====

Details: in n-butanol, 273.15 K
experimental.readout: solubility (mole fraction)
A bare number is all that is needed in reply.

Let me know recorded solubility (mole fraction) for "OC/C=C/c1ccccc1" , thanks.
0.342

====

Details: in ethyl acetate, 263.15 K
experimental.readout: solubility (mole fraction)
Lab note: jot the number down without any unit.

# return recorded solubility (mole fraction) for input "OC/C=C/c1ccccc1"
0.29

====

Details: in isobutanol, 278.15 K
experimental.readout: solubility (mole fraction)
Reply with just the number.

Provide measured solubility (mole fraction) value, entry: "OC/C=C/c1ccccc1"
0.366

====

Conditions: in n-hexane, 278.15 K
experimental.readout: solubility (mole fraction)

Return solubility (mole fraction) (reported value) for this compound: "OC/C=C/c1ccccc1"
0.0248

====

Conditions: in isobutanol, 293.15 K
experimental.readout: solubility (mole fraction)
Returns: the value as a bare number; no unit string appended.

Quote solubility (mole fraction) reported for "OC/C=C/c1ccccc1" please.
0.576
